# PROTOCOL_SUMMARY: human hepatoma cell viability loss – ATP luminescence, cytotoxicity control for P. falciparum antimalarial project, primary screen (AID 2303)
# MEASUREMENT_SETUP: HepG2 viability, 24-48 h, at 10 µM, active compounds read high
inhibition less than 40% is Satisfied; inhibition greater than or equal to 40% is Not satisfied.

Exercise: # check: inhibition < 40% for CN1CCN(C(C(=O)NCc2cc(Cl)cc(Cl)c2)c2ccc(Nc3cccc(C(F)(F)F)c3)cc2)CC1 (centres undefined)
Key: Not satisfied

Exercise: Lab note: inhibition threshold 40%. Does this molecule come in strictly under it? `CCOc1ccc(Nc2ccc3nonc3c2S(=O)(=O)Nc2ccc(OCC)cc2)cc1`
Key: Satisfied

Exercise: Strictly below 40% in inhibition? `CCn1cc(C=C2Oc3c(ccc(O)c3CN3CCCCC3)C2=O)c2ccccc21`
Key: Satisfied

Exercise: Would you kindly verify if inhibition of CCc1ccc(CN2CCCCC(NC(=O)c3cc(-c4ccccc4F)cs3)C2)cc1 (centres undefined) is strictly less than 40%?
Key: Satisfied

Exercise: Dear colleague, could you confirm whether inhibition of `C[C@H](Cc1ccc(OCCCCOc2ccc(C[C@@H](C)NC[C@H](O)c3cccc(Cl)c3)cc2)cc1)NC[C@H](O)c1cccc(Cl)c1` falls below 40%? Thanks.
Key: Not satisfied

Exercise: In the record for CC(CN1CCN(C)CC1)C(=O)Nc1cccc(-c2ccc(-c3nc4ccccc4[nH]3)cc2)c1 (centres undefined) , is inhibition less than 40%?
Key: Satisfied

Next:
Exercise: Strictly below 40% in inhibition? `CCn1c(-c2nonc2N)nc2cnc(Oc3cccc(NC(=O)c4ccc(OCCN5CCCCC5)cc4)c3)cc21`
Key: Satisfied

Exercise: Input `COc1ccc(Nc2nc(C)cc(NC3CCCC3)n2)cc1` ; condition: inhibition strictly below 40%. Does it hold?
Key: Satisfied
